Each entry below lists one item and its recorded normalized growth value.
experiment: chemical genetic growth profiling, strain panel (AID 1159580);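 note: tested at 20 µM; growth read once vehicle control cultures reached saturation at 30 °C; 1 = growth at the plate median or of vehicle wells; lower values mean less growth of the strain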; details: S. cerevisiae deletion strains, growth OD, locus YAR019C, strain CDC15, active compounds read low
Hit rate of the full screen: of about 5,500 compounds, about 2,000 (36%) were called active. Another 18% or so got no clear call; they are omitted. The list shows a part of the results.
ENDPOINT_LABEL: normalized growth

O=C(Nc1ccc(Cl)cc1)O/N=C\c1ccn(-c2ccccc2)n1; 0.958
CS(=O)(=O)c1sc(C(=O)Sc2ccc(Cl)cc2)c2c1C=CCC2; 0.857
COc1ccc(CC2CCC(=NOC(=O)c3c(Cl)cccc3Cl)CC2)cc1 (configuration not stated); 1.03
O=C(CCn1c(=O)oc2ccccc21)Sc1ccc(C(F)(F)F)cc1; 0.931
Cc1c(S(=O)(=O)c2ccc(Cl)cc2)csc1C(=O)NNc1cccc(Cl)c1; 0.964
O=C(NNc1ccc(Cl)cc1)c1ccc(F)cc1F; 0.937
S=C(Nc1cc(Cl)c(Cl)cc1Cl)Nc1ccccc1Br; 0.958
CS(=O)(=O)/C(C#N)=C/c1ccccc1OCc1c(Cl)cccc1Cl; 0.978
COc1cc(CC/C(C)=N/O)ccc1OCc1ccc(Cl)cc1Cl; 0.977
O=C(Nc1ccc(F)c(Cl)c1)c1ccccc1O; 0.9
O=[N+]([O-])c1ccc(-c2csc(Nc3ccncc3)n2)cc1; 0.995
COc1ccc(CC2CCC(=NOC(=O)c3ccc(C(C)(C)C)cc3)CC2)cc1 (configuration not stated); 0.991
N#Cc1ccc(NC(=O)Nc2cccc3ccccc23)cc1; 0.965
O=C(CCn1c(=O)oc2ccccc21)Sc1ccc(Cl)cc1Cl; 0.894
C/C(=N/Nc1ccccc1)c1cc(Cl)cc(Cl)c1O; 0.964
CC1C/C(=N/Nc2ccc(Br)cc2)c2cc(Cl)ccc2S1(=O)=O (configuration not stated); 1.01
S=C(NNc1ccccc1)Nc1cc(Cl)ccc1Cl; 0.963

###

Each entry below lists one item and its recorded normalized growth value.
experiment: chemical genetic growth profiling, strain panel (AID 1159580);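 note: tested at 20 µM; growth read once vehicle control cultures reached saturation at 30 °C; 1 = growth at the plate median or of vehicle wells; lower values mean less growth of the strain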; details: S. cerevisiae deletion strains, growth OD, locus YGL248W, strain PDE1, active compounds read low
The whole screen tested about 5,500 compounds, of which about 2,000 (36%) were called active. About 18% were inconclusive and are not listed. The list shows a part of the results.
ENDPOINT_LABEL: normalized growth

COc1cc(C)c(C(=O)Oc2cc(C)c(C(=O)O)c(O)c2C)c(OC)c1C; 1.01
S=P(N1CC1)(N1CC1)N1CC1; 1.01
C[C@@H]1CC2C3C[C@H](F)C4=CC(=O)C=C[C@]4(C)[C@@]3(F)[C@@H](O)C[C@]2(C)[C@@]1(O)C(=O)COC(=O)C(C)(C)C (stereo not given in full); 1.01
COC(=O)c1c(C)cc(OC(=O)c2c(C)c(Cl)c(O)c(C=O)c2O)c(C)c1O; 0.979
CN(C)CCC(c1ccc(Br)cc1)c1ccccn1 (stereo not given); 0.974

###

test: chemical genetic growth profiling, strain panel (AID 1159580);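 note: tested at 20 µM; growth read once vehicle control cultures reached saturation at 30 °C; 1 = growth at the plate median or of vehicle wells; lower values mean less growth of the strain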; details: S. cerevisiae deletion strains, growth OD, locus YNL161W, strain CBK1
About 2,000 (36%) of roughly 5,500 compounds were called active. Another 18% or so got no clear call; they are omitted. No stated cut-off is given here; in the data, active means normalized growth mostly below about 0.91 (no sharp cut-off); inconclusive means no clear call, values can overlap the other calls; inactive means mostly above about 0.92. The list shows a part of the results.
Labels: active, inactive

O=C1/C(=C/c2cccs2)COc2ccccc21; inactive
C/C(=N/Nc1ccccc1)c1cc(Cl)cc(Cl)c1O; inactive
O=C(NNc1ccc(Cl)cc1)c1ccc(F)cc1F; inactive
CNC(=O)n1nc(C)c(Cc2csc3ccc(Cl)cc23)c1C; inactive
O=C(CCn1c(=O)oc2ccccc21)Sc1ccc(Cl)cc1Cl; inactive
Cc1c(S(=O)(=O)c2ccc(Cl)cc2)csc1C(=O)NNc1cccc(Cl)c1; inactive
NNC(=O)c1csc(Cc2c(Cl)sc3ccc(Cl)cc23)n1; inactive
O=C(CCn1c(=O)oc2ccccc21)Sc1ccc(C(F)(F)F)cc1; inactive
O=S(=O)(Nc1ccc(Oc2ccc(OC(F)(F)F)cc2)cc1)c1cccc(Cl)c1; inactive
O=C(Nc1ccc(Cl)cc1)O/N=C\c1ccn(-c2ccccc2)n1; inactive
CC1C/C(=N/Nc2ccc(Br)cc2)c2cc(Cl)ccc2S1(=O)=O (stereo not given); inactive
COc1cc(CC/C(C)=N\O)ccc1OCc1ccc(Cl)c(Cl)c1; inactive
N#Cc1ccc(NC(=O)Nc2cccc3ccccc23)cc1; inactive
O=C1CSC(c2ccc(C(F)(F)F)cc2)N1c1ccc(C(F)(F)F)cc1 (stereo not given); inactive
O=C1/C(=C/c2ccc(C(F)(F)F)cc2)COc2ccccc21; inactive
COc1ccc(C(=O)NCc2csc3ccc(Cl)cc23)cc1OC; inactive
O=[N+]([O-])c1ccc(-c2csc(Nc3ccncc3)n2)cc1; inactive
O=C(Nc1cccc2ccccc12)c1ccccc1O; active
Cc1ccc(N2C(=O)CSC2c2ccc(Cl)c(Cl)c2)cc1Cl (stereo not given); inactive
Cc1nn(Cc2nnc(SCc3cccc(C(F)(F)F)c3)o2)c(C)c1Br; inactive
